Listing of recorded %Inh by entry.
# System: STK33;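 note: KINOMEscan kinase panel screen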
# Run Conditions: concentration: 1 μM, replicates: in singlicate; n = 1
Readout Name: %Inh (%)

Compound	Result Units	Experimental Value
Fc1cccc(CSc2nnc(-c3ccc4c(c3)CCO4)o2)c1	%	6
CCS(=O)(=O)c1ccc(OC)c(Nc2ncc(-c3ccc(F)cc3)o2)c1.Cl [GW591947]	%	12
Cc1cccc(-c2nc(Nc3ccc4c(cnn4C)c3)c3ccccc3n2)n1 [GW876731]	%	0
CN1C(=O)C(Nc2ccccc2)=C(c2ccccc2)C1=O [SB-300079]	%	9
O=C(Nc1n[nH]c2cc(-c3ccccc3F)ccc12)C1CC1 [SB-733371]	%	0
CC(C)(C)c1ccc(C(=O)Nc2cn3cc(-c4ccccc4)ccc3n2)cc1	%	3
CCC(=O)c1c(-c2ccccc2)c2cc(Cl)ccc2c(=O)n1Cc1cc(C(=O)NC2CC2)n(C)n1	%	0
Nc1nc(-c2ccccc2F)c(-c2ccnc3ccccc23)s1 [GW560459]	%	0
Nc1ncnc2c1ncn2-c1ccc(Cl)cc1 [AH2635]	%	0
